src = ChEMBL document CHEMBL3885881

Species: Rattus norvegicus
Experiment: DrugMatrix - Regimen: Daily Repeat
Format: toxicity, organism-based, Sprague-Dawley
Design: regimen Daily Repeat, gender Male, age 6-8 weeks
Conditions: in vivo, po, 0 mg/kg, […], tissue Blood, route oral GAVAGE, dose level Control, time 14 day, vehicle 100 % SALINE

Chemical Structure	ABSOLUTE EOSINOPHIL / cells/µL
COc1cccc2c1C(=O)c1c(O)c3c(c(O)c1C2=O)C[C@@](O)(C(C)=O)C[C@@H]3O[C@H]1C[C@H](N)[C@H](O)[C@H](C)O1	80

---

Species: Rattus norvegicus
Test: DrugMatrix - Regimen: Daily Repeat
Assay type: toxicity, organism-based, Sprague-Dawley
Design: regimen Daily Repeat, gender Male, age 6-8 weeks
Settings: in vivo, po, 0 mg/kg, 120 h, tissue Plasma, route oral GAVAGE, dose level Control, time 5 day, vehicle .5 % CMC
# TOTAL BILIRUBIN annotations

Compound	TOTAL BILIRUBIN (mg/dL)
CN1CCN(C2=Nc3cc(Cl)ccc3Nc3ccccc32)CC1 [CLOZAPINE]	0.57
CN(C)CCN(Cc1cccs1)c1ccccn1	0.3
C[C@@H]1O[C@@H](O[C@H]2C[C@@H](O)[C@]3(CO)[C@H]4[C@H](O)C[C@]5(C)[C@@H](C6=CC(=O)OC6)CC[C@]5(O)[C@@H]4CC[C@]3(O)C2)[C@H](O)[C@H](O)[C@H]1O [OUABAIN]	0.22
COc1ccc2c(c1OC)C(=O)O[C@@H]2[C@H]1c2c(cc3c(c2OC)OCO3)CCN1C [NOSCAPINE]	0.58
CCOc1nc2cccc(C(=O)O)c2n1Cc1ccc(-c2ccccc2-c2nnn[nH]2)cc1	0.17

---

Listed molecules paired with reported PLATELET COUNT
Organism: Rattus norvegicus
Assay: DrugMatrix - Regimen: Daily Repeat
Type: toxicity, organism-based, Sprague-Dawley
Design: regimen Daily Repeat, gender Male, age 6-8 weeks
Conditions: in vivo, po, 0 mg/kg, 120 h, tissue Blood, route oral GAVAGE, dose level Control, time 5 day, vehicle .5 % CMC
Property Label: PLATELET COUNT (x10E3/uL)

Molecule	Display Unit	Measured Result
C[C@@H]1O[C@@H](O[C@H]2C[C@@H](O)[C@]3(CO)[C@H]4[C@H](O)C[C@]5(C)[C@@H](C6=CC(=O)OC6)CC[C@]5(O)[C@@H]4CC[C@]3(O)C2)[C@H](O)[C@H](O)[C@H]1O	x10E3/uL	1028.5
COc1ccccc1[N+](=O)[O-]	x10E3/uL	907.5
CN1C(=O)CN=C(c2ccccc2)c2cc([N+](=O)[O-])ccc21	x10E3/uL	1298
CN(C)C(=O)C(CCN1CCC(O)(c2ccc(Cl)cc2)CC1)(c1ccccc1)c1ccccc1 [LOPERAMIDE]	x10E3/uL	1097.5
C[C@@](Cc1ccc(O)c(O)c1)(NN)C(=O)O.O	x10E3/uL	1255.5
CCCNC(=O)NS(=O)(=O)c1ccc(Cl)cc1 [CHLORPROPAMIDE]	x10E3/uL	1177
CN1CCN(C2=Nc3cc(Cl)ccc3Nc3ccccc32)CC1	x10E3/uL	1177
COc1ccc2c(c1OC)C(=O)O[C@@H]2[C@H]1c2c(cc3c(c2OC)OCO3)CCN1C	x10E3/uL	1267
CN(C)CCN(Cc1cccs1)c1ccccn1	x10E3/uL	1229.25
C[C@H]1[C@H](NC(=O)/C(=N\OC(C)(C)C(=O)O)c2csc(N)n2)C(=O)N1S(=O)(=O)O	x10E3/uL	1255.5
CCC1=C(C)CN(C(=O)NCCc2ccc(S(=O)(=O)NC(=O)N[C@H]3CC[C@H](C)CC3)cc2)C1=O [GLIMEPIRIDE]	x10E3/uL	1097.5
CCOc1nc2cccc(C(=O)O)c2n1Cc1ccc(-c2ccccc2-c2nnn[nH]2)cc1	x10E3/uL	1213.83
C[C@]12CC[C@@H]3c4ccc(O)cc4CC[C@H]3[C@@H]1C[C@@H](O)[C@@H]2O	x10E3/uL	1196
COc1cc(OC)c(C(=O)CCCN2CCCC2)c(OC)c1	x10E3/uL	1248.17
CCCCC1=NC2(CCCC2)C(=O)N1Cc1ccc(-c2ccccc2-c2nnn[nH]2)cc1	x10E3/uL	1028.5
C#C[C@]1(O)CC[C@H]2[C@@H]3CCC4=CC(=O)CC[C@]4(C)[C@H]3CC[C@@]21C	x10E3/uL	1267
NC(=O)N1c2ccccc2CC(=O)c2ccccc21 [OXCARBAZEPINE]	x10E3/uL	1274
CCn1cc(C(=O)O)c(=O)c2cc(F)c(N3CCNC(C)C3)c(F)c21 (stereo not drawn)	x10E3/uL	1155.8

---

Organism: Rattus norvegicus
Assay: DrugMatrix - Regimen: Daily Repeat
Type: toxicity, organism-based, Sprague-Dawley
Design: regimen Daily Repeat, gender Male, age 6-8 weeks
Conditions: in vivo, po, 0 mg/kg, 72 h, tissue Blood, route oral GAVAGE, dose level Control, time 3 day, vehicle .5 % CMC

Molecule	ERYTHROCYTE COUNT (x10E6/uL)
C[C@H]1[C@H](NC(=O)/C(=N\OC(C)(C)C(=O)O)c2csc(N)n2)C(=O)N1S(=O)(=O)O	5.76
CCn1cc(C(=O)O)c(=O)c2cc(F)c(N3CCNC(C)C3)c(F)c21 (centres undefined)	6.43
CN(C)C(=O)C(CCN1CCC(O)(c2ccc(Cl)cc2)CC1)(c1ccccc1)c1ccccc1 [LOPERAMIDE]	5.51
NC(=O)N1c2ccccc2CC(=O)c2ccccc21 [OXCARBAZEPINE]	5.76

---

Species on record: Rattus norvegicus
Assay: DrugMatrix - Regimen: Daily Repeat
Format: toxicity, organism-based, Sprague-Dawley
Design: regimen Daily Repeat, gender Male, age 6-8 weeks
Settings: in vivo, po, 0 mg/kg, 72 h, tissue Blood, route oral GAVAGE, dose level Control, time 3 day, vehicle .5 % CMC

Molecule	LYMPHOCYTE, %
CCCNC(=O)NS(=O)(=O)c1ccc(Cl)cc1 [CHLORPROPAMIDE]	76
C[C@@H]1O[C@@H](O[C@H]2C[C@@H](O)[C@]3(CO)[C@H]4[C@H](O)C[C@]5(C)[C@@H](C6=CC(=O)OC6)CC[C@]5(O)[C@@H]4CC[C@]3(O)C2)[C@H](O)[C@H](O)[C@H]1O [OUABAIN]	87.67
C[C@@](Cc1ccc(O)c(O)c1)(NN)C(=O)O.O [CARBIDOPA]	89.33
CN(C)C(=O)C(CCN1CCC(O)(c2ccc(Cl)cc2)CC1)(c1ccccc1)c1ccccc1 [LOPERAMIDE]	89.83
CCOc1nc2cccc(C(=O)O)c2n1Cc1ccc(-c2ccccc2-c2nnn[nH]2)cc1	91.67
C[C@H]1[C@H](NC(=O)/C(=N\OC(C)(C)C(=O)O)c2csc(N)n2)C(=O)N1S(=O)(=O)O [AZTREONAM]	89.33
C#C[C@]1(O)CC[C@H]2[C@@H]3CCC4=CC(=O)CC[C@]4(C)[C@H]3CC[C@@]21C [ETHISTERONE]	84.44
COc1ccccc1[N+](=O)[O-] [2-NITROANISOLE]	77.83
CN1CCN(C2=Nc3cc(Cl)ccc3Nc3ccccc32)CC1 [CLOZAPINE]	76
NC(=O)N1c2ccccc2CC(=O)c2ccccc21 [OXCARBAZEPINE]	91.67
CCCCC1=NC2(CCCC2)C(=O)N1Cc1ccc(-c2ccccc2-c2nnn[nH]2)cc1 [IRBESARTAN]	75.17
C[C@]12CC[C@@H]3c4ccc(O)cc4CC[C@H]3[C@@H]1C[C@@H](O)[C@@H]2O [ESTRIOL]	90.17
COc1ccc2c(c1OC)C(=O)O[C@@H]2[C@H]1c2c(cc3c(c2OC)OCO3)CCN1C [NOSCAPINE]	84.44
CN1C(=O)CN=C(c2ccccc2)c2cc([N+](=O)[O-])ccc21 [NIMETAZEPAM]	76.48
COc1cc(OC)c(C(=O)CCCN2CCCC2)c(OC)c1 [BUFLOMEDIL]	88
CCC1=C(C)CN(C(=O)NCCc2ccc(S(=O)(=O)NC(=O)N[C@H]3CC[C@H](C)CC3)cc2)C1=O [GLIMEPIRIDE]	89.83
CCn1cc(C(=O)O)c(=O)c2cc(F)c(N3CCNC(C)C3)c(F)c21 (configuration not stated) [LOMEFLOXACIN]	81.4

---

Organism: Rattus norvegicus
Test: DrugMatrix - Regimen: Daily Repeat
Assay type: toxicity, organism-based, Sprague-Dawley
Set-up: regimen Daily Repeat, gender Male, age 6-8 weeks
Conditions: in vivo, po, 0 mg/kg, 72 h, tissue Blood, route oral GAVAGE, dose level Control, time 3 day, […]
Property Label: EOSINOPHIL (%)

Compound	Measured Result
CCCCC(=O)N(Cc1ccc(-c2ccccc2-c2nnn[nH]2)cc1)[C@H](C(=O)O)C(C)C	0.17
CS(=O)(=O)Nc1ccc([N+](=O)[O-])cc1Oc1ccccc1 [NIMESULIDE]	0
CC(=O)Oc1ccccc1C(=O)O	0
ClC(Cl)(Cl)Cl [CARBON TETRACHLORIDE]	0.5
CCc1ccc(CCOc2ccc(CC3SC(=O)NC3=O)cc2)nc1 (centres undefined)	0.17
Cc1ccc(C)c(OCCCC(C)(C)C(=O)O)c1	0.5
c1ccoc1	0.55
O=c1c(-c2ccc(O)cc2)coc2cc(O)cc(O)c12	0.17
CC(C)c1c(C(=O)Nc2ccccc2)c(-c2ccccc2)c(-c2ccc(F)cc2)n1CC[C@@H](O)C[C@@H](O)CC(=O)O	0.17
